- Test system: SF-295 CNS
- EXPERIMENT: NCI tumour cell line growth inhibition, 48 h
Item-by-item account of TGI

- COMPOUND: "COC(=O)c1c(OC(C)=O)ccc2c1c1c(OC(C)=O)c3ccccc3c(OC(C)=O)c1n2Cc1ccccc1"
  TEST_SYSTEM: "SF-295 CNS"
  TGI: "10.9 µM"
- COMPOUND: "O=c1onc2c3ccccc3ncn12"
  TEST_SYSTEM: "SF-295 CNS"
  TGI: "> 100 µM"
- COMPOUND: "COc1ccc2c(c1)CCN1CCc3cc(OC)c(OC)cc3CC21 (stereo not given)"
  TEST_SYSTEM: "SF-295 CNS"
  TGI: "> 100 µM"
- COMPOUND: "CC1OC(OC2C(OC(=O)[C@@H]3CC(C)(C)C[C@H]4C5=CC[C@@H]6[C@@]7(C)C[C@H](O)[C@H](OC8OC(CO)C(O)C(O)C8O)[C@@](C)(CO)[C@@H]7[C@H](O)C[C@@]6(C)[C@]5(C)CC[C@@]34C)OCC(O)C2O)C(O)C(O)C1O (stereo not given in full)"
  TEST_SYSTEM: "SF-295 CNS"
  TGI: "> 7.5 µM"
- COMPOUND: "COc1ccc(OC)c(Cn2cc3c(c2)-c2oncc2CC3)c1"
  TEST_SYSTEM: "SF-295 CNS"
  TGI: "11.1 µM"
- COMPOUND: "CCCCCCCCCCCCCP(=O)(O)NCC(N)=O"
  TEST_SYSTEM: "SF-295 CNS"
  TGI: "> 100 µM"
- COMPOUND: "COc1ccc(C(=O)N2c3ccccc3Sc3ccccc32)c(OC)c1"
  TEST_SYSTEM: "SF-295 CNS"
  TGI: "> 100 µM"
- COMPOUND: "CC(C)(C)c1cc(C2COC(c3cc(C(C)(C)C)c(O)c(C(C)(C)C)c3)CO2)cc(C(C)(C)C)c1O (stereo not given)"
  TEST_SYSTEM: "SF-295 CNS"
  TGI: "> 100 µM"
- COMPOUND: "Nc1nc(Cl)c(N)c(NCC2(CO)CC(CCCc3ccccc3)C2)n1 (stereo not given)"
  TEST_SYSTEM: "SF-295 CNS"
  TGI: "> 59.5 µM"
- COMPOUND: "C#CCOCC12C=CC(O1)C1C(=O)OCC12 (stereo not given)"
  TEST_SYSTEM: "SF-295 CNS"
  TGI: "> 100 µM"
- COMPOUND: "CC(NC(C)(C)C)C(=O)c1cccc(Cl)c1 (stereo not given)"
  TEST_SYSTEM: "SF-295 CNS"
  TGI: "> 100 µM"
- COMPOUND: "COC(=O)c1c(O)ccc2c1C1(Cc3ccccc3C1=O)C(O)O2 (stereo not given)"
  TEST_SYSTEM: "SF-295 CNS"
  TGI: "> 100 µM"
- COMPOUND: "O=C(Nc1cccc(Nc2ncc(Br)c(NCCc3cnc[nH]3)n2)c1)N1CCCC1"
  TEST_SYSTEM: "SF-295 CNS"
  TGI: "20.8 µM"
- COMPOUND: "CC(C)c1c2[nH]c3ccccc3c2c(C(C)C)c2[nH]c3ccccc3c12"
  TEST_SYSTEM: "SF-295 CNS"
  TGI: "> 100 µM"
- COMPOUND: "COc1cc2c(c(OC)c1OC)-c1ccc(SC)c(=O)cc1[C@@H](NC1OC(CO)C(O)C(O)C1O)CC2 (stereo not given in full)"
  TEST_SYSTEM: "SF-295 CNS"
  TGI: "> 100 µM"
- COMPOUND: "COc1ccc2c(c1OC)C(=O)OC2C1c2c(c([N+](=O)[O-])c3c(c2OC)OCO3)CCN1C (stereo not given)"
  TEST_SYSTEM: "SF-295 CNS"
  TGI: "> 100 µM"
- COMPOUND: "O=C([CH-]C(=O)c1ccccc1)c1ccccc1.O=C([CH-]C(=O)c1ccccc1)c1ccccc1.[OH-].[OH-].[Ti+4]"
  TEST_SYSTEM: "SF-295 CNS"
  TGI: "> 100 µM"
- COMPOUND: "Cc1ccc(NC(=O)c2ccccc2C(=O)O)cc1C"
  TEST_SYSTEM: "SF-295 CNS"
  TGI: "> 100 µM"
- COMPOUND: "COC1O[C@@H]2C[C@H]3C(C)(C)CCC[C@]3(C)C3=CCCC1[C@@]32C (stereo not given in full)"
  TEST_SYSTEM: "SF-295 CNS"
  TGI: "> 100 µM"
- COMPOUND: "CCN(Cc1ccc(Cl)s1)c1ccc(CO)c(Cl)c1"
  TEST_SYSTEM: "SF-295 CNS"
  TGI: "15.9 µM"

// data source = PubChem BioAssay (NCI)
